Molecular target: human TLR9 (Homo sapiens)
Sequence (Q9NR96 26-1032): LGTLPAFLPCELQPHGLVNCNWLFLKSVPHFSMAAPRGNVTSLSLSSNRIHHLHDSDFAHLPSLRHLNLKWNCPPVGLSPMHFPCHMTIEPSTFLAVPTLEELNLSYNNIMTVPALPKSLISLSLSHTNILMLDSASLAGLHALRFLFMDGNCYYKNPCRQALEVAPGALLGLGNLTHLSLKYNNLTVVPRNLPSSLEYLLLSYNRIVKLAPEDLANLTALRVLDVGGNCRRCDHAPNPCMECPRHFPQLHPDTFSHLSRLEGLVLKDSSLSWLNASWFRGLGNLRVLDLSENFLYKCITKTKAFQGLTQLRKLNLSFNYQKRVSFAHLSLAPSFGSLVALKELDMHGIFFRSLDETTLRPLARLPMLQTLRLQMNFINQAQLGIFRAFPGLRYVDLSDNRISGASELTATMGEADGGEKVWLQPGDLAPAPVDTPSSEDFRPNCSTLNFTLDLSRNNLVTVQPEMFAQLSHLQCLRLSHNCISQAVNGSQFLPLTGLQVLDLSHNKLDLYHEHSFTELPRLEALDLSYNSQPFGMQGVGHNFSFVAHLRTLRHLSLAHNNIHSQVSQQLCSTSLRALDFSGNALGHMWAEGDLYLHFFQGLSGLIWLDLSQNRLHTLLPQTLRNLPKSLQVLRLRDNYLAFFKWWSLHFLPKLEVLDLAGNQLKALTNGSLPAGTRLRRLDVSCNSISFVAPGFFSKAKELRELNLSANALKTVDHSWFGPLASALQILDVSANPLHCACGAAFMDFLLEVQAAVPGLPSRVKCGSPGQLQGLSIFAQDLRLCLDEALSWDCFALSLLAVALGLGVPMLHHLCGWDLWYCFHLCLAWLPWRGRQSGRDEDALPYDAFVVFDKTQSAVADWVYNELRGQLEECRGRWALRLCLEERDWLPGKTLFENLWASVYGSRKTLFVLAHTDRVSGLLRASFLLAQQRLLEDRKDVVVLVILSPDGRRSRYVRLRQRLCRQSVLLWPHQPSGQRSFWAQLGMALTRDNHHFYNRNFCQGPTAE
Experiment: TLR9 inhibition reporter assay (HEK-Blue cells, SEAP reporter, ODN2006 stimulation)
Details: HEK-Blue cells overexpressing human TLR9, SEAP reporter, ODN2006 5 nM
Text: TLR7/8/9 Inhibition Reporter Assays HEK-Blue™-cells (Invivogen) overexpressing human TLR7, TLR8 or TLR9 receptors were used for screening inhibitors of these receptors using an inducible SEAP (secreted embryonic alkaline phosphatase) reporter gene under the control of the IFN-β minimal promoter fused to five NF-κB and AP-1-binding sites. […]
readout: IC50

Cc1cc(-c2[nH]c3ccc(C4CCN(Cc5ncn(C)n5)CC4)cc3c2C(C)C)cn2nncc12 [Example 881]    1 to 50 µM
CC(C)c1c(-c2ccc3nccnc3c2)[nH]c2ccc(C3CCNCC3)cc12 [Example 165]    1 to 50 µM
CC(C)c1c(-c2cnc3ncnn3c2)[nH]c2ccc(C3CCN(CC(C)(C)O)CC3)cc12 [Example 773]    1 to 50 µM
CC(C)c1c(-c2cn(C)c3ncccc23)[nH]c2ccc(C3CCN(C4CCS(=O)(=O)CC4)CC3)cc12 [Example 784]    1 to 50 µM
CC(C)c1c(-c2cn(C)c3ncccc23)[nH]c2ccc(C3CCN(C4COC4)CC3)cc12 [Example 733]    1 to 50 µM
CC(C)c1c(-c2cn3ccnc3cc2C(F)(F)F)[nH]c2ccc(C3CCN(CC(=O)N(C)C)CC3)cc12 [Example 427]    1 to 50 µM
Cc1cc(-c2[nH]c3ccc(C4CCN(C5CCOCC5)CC4)cc3c2C(C)C)cn2nnnc12 [Example 698]    1 to 50 µM
CNCC(=O)N1CCC(c2ccc3[nH]c(-c4cc(OC)c5nccn5c4)c(C(C)C)c3c2)CC1 [Example 559]    0.1 to 1 µM

Count: 8. Required value per item: IC50.
1. CC(C)c1c(-c2ccc(Cl)c3[nH]ncc23)[nH]c2ccc(C3CCN(C(=O)CN(C)C)CC3)cc12 [Example 556]
2. CCc1c(-c2ccn3ncnc3c2)[nH]c2ccc(C3CCNCC3)cc12 [Example 198]
3. CCCCc1nc(Cl)c(CN2CCC(c3ccc4[nH]c(-c5ccnc6[nH]ncc56)c(C(C)C)c4c3)CC2)[nH]1 [Example 896]
4. CC(C)c1c(-c2ccc3[nH]nc(N)c3c2)[nH]c2ccc(C3CCNCC3)cc12 [Example 93]
5. Cc1cc(-c2[nH]c3ccc(C4CCN(C(=O)CCN5CCCC5)CC4)cc3c2C(C)C)cn2nnnc12 [Example 618]
6. CC(C)c1c(-c2ccnc3[nH]ncc23)[nH]c2ccc(C3CCN(Cc4c[nH]cn4)CC3)cc12 [Example 870]
7. CC(C)c1c(-c2ccnc3[nH]ncc23)[nH]c2ccc(C3CCN(C4CCN(C(C)C)CC4)CC3)cc12 [Example 821]
8. Cc1cn2cc(-c3[nH]c4ccc(C5CCNCC5)cc4c3C(C)C)cc(C(F)(F)F)c2n1 [Example 137]

Solution:
["1 to 50 µM", "1 to 50 µM", "1 to 50 µM", "0.1 to 1 µM", "0.1 to 1 µM", "0.1 to 1 µM", "< 0.1 µM", "0.1 to 1 µM"]
